- TGT: human FXIIa (Homo sapiens, UniProt P00748)
- Sequence (P00748 373-615 limits assumed): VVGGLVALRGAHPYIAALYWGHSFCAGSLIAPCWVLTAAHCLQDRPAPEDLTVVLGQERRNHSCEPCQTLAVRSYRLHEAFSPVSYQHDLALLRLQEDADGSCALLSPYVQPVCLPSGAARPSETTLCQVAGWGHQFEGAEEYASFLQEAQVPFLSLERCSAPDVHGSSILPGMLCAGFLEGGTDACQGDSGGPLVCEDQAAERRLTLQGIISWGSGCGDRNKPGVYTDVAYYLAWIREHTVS
- Sequence (P00748 20-372 partner limits assumed): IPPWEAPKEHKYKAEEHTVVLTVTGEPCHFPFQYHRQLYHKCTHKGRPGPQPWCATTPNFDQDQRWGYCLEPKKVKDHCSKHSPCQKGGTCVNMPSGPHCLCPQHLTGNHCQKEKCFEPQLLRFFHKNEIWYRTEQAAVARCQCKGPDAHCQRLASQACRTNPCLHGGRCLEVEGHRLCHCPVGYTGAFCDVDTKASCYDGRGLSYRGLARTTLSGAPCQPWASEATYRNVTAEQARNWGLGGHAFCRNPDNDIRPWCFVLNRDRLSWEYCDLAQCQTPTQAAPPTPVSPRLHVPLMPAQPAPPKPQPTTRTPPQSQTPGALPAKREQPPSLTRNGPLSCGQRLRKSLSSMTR
- PROCEDURE TEXT: Direct inhibition of human FXIIa, chromogenic substrate hydrolysis assay
- CONDITION CONTEXT: FXIIa, summary picture in supplement
pIC50: −log10 of the molar value.
RESULT TYPE: pIC50

In [3]: df
Out[3]:
                                   compound  measured_value
0  CC(C)(C)c1ccc(C(=O)n2ncnc2N)cc1 [compound 10]            5.07

* * *

- TGT: human FXIIa (Homo sapiens, UniProt P00748)
- PROCEDURE TEXT: Direct inhibition of human FXIIa, chromogenic substrate hydrolysis assay
pIC50: −log10 of the molar value.
Known pIC50 of a selection of compounds
RESULT TYPE: pIC50

In [3]: df
Out[3]:
                           substance_smiles  result_type  measured_value
0      COC(=O)c1nc(N)n(C(=O)c2ccc(Br)cc2)n1        pIC50            6.05
1       COC(=O)c1nc(N)n(C(=O)c2ccc(F)cc2)n1        pIC50            7.49
2  COC(=O)c1nc(N)n(C(=O)c2cc(OC)c(OC)c(OC)c2)n1        pIC50            7.35
3        COC(=O)c1nc(N)n(C(=O)c2ccccc2Br)n1        pIC50            7.10
4      COC(=O)c1nc(N)n(C(=O)c2ccc(Cl)cc2)n1        pIC50            5.11
5        COC(=O)c1nc(N)n(C(=O)c2ccccc2Cl)n1        pIC50            5.77
6         CCOC(=O)c1nc(N)n(C(=O)c2ccccc2)n1        pIC50            5.10
7                 COC(=O)c1nc(N)n(C(C)=O)n1        pIC50            5.20
